Field: cAMP EC50. Provide a value for each of the binders that follow.
target: hGLP-1R (Homo sapiens, UniProt P43220); experiment: cell-based or functional assay
Note: unit nM is implicit; provide only the numeric part.

Request: // returns reported cAMP EC50 for input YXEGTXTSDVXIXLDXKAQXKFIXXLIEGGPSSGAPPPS (Y-Aib-EGT-αMeF(2F)-TSDV-Aib-I-αMeL-LD-Orn-K((2-[2-(2-Amino-ethoxy)-ethoxy]-acetyl)2-CO-(CH2)12-CO2H)AQ-Aib-K((2-[2-(2-Amino-ethoxy)-ethoxy]-acetyl)2-CO-(CH2)12-CO2H)FI-(D-Glu)-αMeY-LIEGGPSSGAPPPS-NH2) [Example 386]
Result: 0.194

Request: // returns reported cAMP EC50 for input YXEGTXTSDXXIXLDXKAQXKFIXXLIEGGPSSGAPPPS (Y-Aib-EGT-αMeF(2F)-TSD-4Pal-Aib-I-αMeL-LD-Orn-K((2-[2-(2-Amino-ethoxy)-ethoxy]-acetyl)-(γ-Glu)-(10-(4-carboxyphenoxy)decanoyl))AQ-Aib-K((2-[2-(2-Amino-ethoxy)-ethoxy]-acetyl)-(γ-Glu)-(10-(4-carboxyphenoxy)decanoyl))FI-(D-Glu)-αMeY-LIEGGPSSGAPPPS-NH2) [Example 360]
Result: 0.301

Request: // returns reported cAMP EC50 for input YXEGTXTSDYXIXLDXKAQXXFIXXLIKGGPSSGAPPPS (Y-Aib-EGT-αMeF(2F)-TSDY-Aib-I-αMeL-LD-Orn-K((2-[2-(2-Amino-ethoxy)-ethoxy]-acetyl)2-(γ-Glu)-(10-(4-carboxyphenoxy)decanoyl))AQ-Aib-Om-FI-(D-Glu)-αMeY-LIK((2-[2-(2-Amino-ethoxy)-ethoxy]-acetyl)2-(γ-Glu)-(10-(4-carboxyphenoxy)decanoyl))GGPSSGAPPPS-NH2) [Example 352]
Result: 0.262

Request: // returns reported cAMP EC50 for input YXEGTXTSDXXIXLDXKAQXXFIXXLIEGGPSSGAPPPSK (Y-Aib-EGT-αMeF(2F)-TSD-4Pal-Aib-I-αMeL-LD-Orn-K((2-[2-(2-Amino-ethoxy)-ethoxy]-acetyl)2-(γ-Glu)-CO-(CH2)10-CH3)AQ-Aib-Orn-FI-(D-Glu)-αMeY-LIEGGPSSGAPPPSK((2-[2-(2-Amino-ethoxy)-ethoxy]-acetyl)2-(γ-Glu)-CO-(CH2)10-CH3)-NH2) [Example 418]
Result: 0.0603

Request: // returns reported cAMP EC50 for input YXEGTXTSDXXIXLDXKAQXEXIXXLIEGGPSSGAPPPSK (not fully specified; Y-Aib-EGT-αMeF(2F)-TSD-4Pal-Aib-I-αMeL-LD-Orn-K((2-[2-(2-Amino-ethoxy)-ethoxy]-acetyl)2-(γ Glu)-CO-(CH2)10C3)AQ-Aib-E-αMeF-I-(D-Glu)-αMeY-LIEGGPSSGAPPPSK((2-[2-(2-Amino-ethoxy)-ethoxy]-acetyl)2-(γ-Glu)-CO-(CH2)10-CH3)-NH2) [Example 431]
Result: 0.134

Request: // returns reported cAMP EC50 for input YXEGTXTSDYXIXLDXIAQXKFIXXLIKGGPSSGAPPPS (Y-Aib-EGT-αMeF(2F)-TSDY-Aib-I-αMeL-LD-Orn-IAQ-Aib-K((2-[2-(2-Amino-ethoxy)-ethoxy]-acetyl)-(γ-Glu)-(10-(4-carboxyphenoxy)decanoyl))FI-(D-Glu)-αMeY-LIK((2-[2-(2-Amino-ethoxy)-ethoxy]-acetyl)-(γ-Glu)-(10-(4-carboxyphenoxy)decanoyl))GGPSSGAPPPS-NH2) [Example 376]
Result: 0.539

Request: // returns reported cAMP EC50 for input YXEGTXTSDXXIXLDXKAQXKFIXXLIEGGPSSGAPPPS (Y-Aib-EGT-αMeF(2F)-TSD-4Pal-Aib-I-αMeL-LD-Orn-K((2-[2-(2-Amino-ethoxy)-ethoxy]-acetyl)2-(γ-Glu)-CO-(CH2)12-CO2H)AQ-Aib-K((2-[2-(2-Amino-ethoxy)-ethoxy]-acetyl)2-(γ-Glu)-CO-(CH2)12-CO2H)FI-(D-Glu)-αMeY-LIEGGPSSGAPPPS-NH2) [Example 357]
Result: 0.649

Request: // returns reported cAMP EC50 for input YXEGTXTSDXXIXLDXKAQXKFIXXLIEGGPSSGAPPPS (Y-Aib-EGT-αMeF(2F)-TSD-4Pal-Aib-I-αMeL-LD-Orn-K((2-[2-(2-Amino-ethoxy)-ethoxy]-acetyl)3-(γ-Glu)-CO-(CH2)10-CH3)AQ-Aib-K((2-[2-(2-Amino-ethoxy)-ethoxy]-acetyl)3-(γ-Glu)-CO-(CH2)10-CH3)FI-(D-Glu)-αMeY-LIEGGPSSGAPPPS-NH2) [Example 422]
Result: 0.0729

Request: // returns reported cAMP EC50 for input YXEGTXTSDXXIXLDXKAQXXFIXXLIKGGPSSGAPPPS (Y-Aib-EGT-αMeF(2F)-TSD-4Pal-Aib-I-αMeL-LD-Orn-K((2-[2-(2-Amino-ethoxy)-ethoxy]-acetyl)2-(γ-Glu)-CO-(CH2)10-CH3)AQ-Aib-Orn-FI-(D-Glu)-αMeY-LIK((2-[2-(2-Amino-ethoxy)-ethoxy]-acetyl)2-(γ-Glu)-CO-(CH2)10-CH3)GGPSSGAPPPS-NH2) [Example 414]
Result: 0.119

Request: // returns reported cAMP EC50 for input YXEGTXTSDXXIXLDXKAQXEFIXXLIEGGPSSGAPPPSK (Y-Aib-EGT-αMeF(2F)-TSD-4Pal-Aib-I-αMeL-LD-Orn-K((2-[2-(2-Amino-ethoxy)-ethoxy]-acetyl)2-(γ-Glu)-CO-(CH2)10-CH3)AQ-Aib-EFI-(D-Glu)-αMeY-LIEGGPSSGAPPPSK((2-[2-(2-Amino-ethoxy)-ethoxy]-acetyl)2-(γ-Glu)-CO-(CH2)10-CH3)-NH2) [Example 324]
Result: 0.0647

Request: // returns reported cAMP EC50 for input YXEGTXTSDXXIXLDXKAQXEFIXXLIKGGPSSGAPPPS (Y-Aib-EGT-αMeF(2F)-TSD-4Pal-Aib-I-αMeL-LD-Orn-K((2-[2-(2-Amino-ethoxy)-ethoxy]-acetyl)2-(10-(4-carboxyphenoxy)decanoyl))AQ-Aib-EFI-(D-Glu)-αMeY-LIK((2-[2-(2-Amino-ethoxy)-ethoxy]-acetyl)2-(10-(4-carboxyphenoxy)decanoyl))GGPSSGAPPPS-NH2) [Example 395]
Result: 0.377

Request: // returns reported cAMP EC50 for input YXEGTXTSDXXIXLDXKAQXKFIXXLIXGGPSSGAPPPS (Y-Aib-EGT-αMeF(2F)-TSD-4Pal-Aib-I-αMeL-LD-Orn-K((2-[2-(2-Amino-ethoxy)-ethoxy]-acetyl)2-(γ-Glu)-CO-(CH2)10-CH3)AQ-Aib-K((2-[2-(2-Amino-ethoxy)-ethoxy]-acetyl)2-(γ-Glu)-CO-(CH2)10-CH3)FI-(D-Glu)-αMeY-LI-Orn-GGPSSGAPPPS-NH2) [Example 413]
Result: 0.234

Request: // returns reported cAMP EC50 for input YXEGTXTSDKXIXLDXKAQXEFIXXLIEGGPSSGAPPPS (Y-Aib-EGT-αMeF(2F)-TSDK((2-[2-(2-Amino-ethoxy)-ethoxy]-acetyl)2-(γ-Glu)-CO-(CH2)10-CH3)-Aib-I-αMeL-LD-Orn-K((2-[2-(2-Amino-ethoxy)-ethoxy]-acetyl)2-(γ-Glu)-CO-(CH2)10-CH3)AQ-Aib-EFI-(D-Glu)-αMeY-LIEGGPSSGAPPPS-NH2) [Example 292]
Result: 0.0758

Where do the numbers come from? From patent US20230265151A1.
